system: M14; settings: read-out: LC50; M14 (Melanoma)
assay endpoint: CC50

Prompt: Any idea what CC50 came out for COc1cc(Nc2ncc(F)c(Nc3ccc4c(n3)NC(=O)C(C)(C)O4)n2)cc(OC)c1OC.O=S(=O)(O)c1ccccc1 [Compound 1 (besylate salt)] on M14?
Response: > 100 µM

###

test system: EKVX; conditions: read-out: LC50; EKVX (Non-Small Cell Lung Cancer)
assay endpoint: CC50

Prompt: So what does the record say about CC50 for COc1cc(Nc2ncc(F)c(Nc3ccc4c(n3)NC(=O)C(C)(C)O4)n2)cc(OC)c1OC.O=S(=O)(O)c1ccccc1 [Compound 1 (besylate salt)] ?
Response: > 100 µM

###

tested on: SF-268; conditions: read-out: LC50; SF-268 (CNS Cancer)
assay endpoint: CC50

Prompt: So what does the record say about CC50 for COc1cc(Nc2ncc(F)c(Nc3ccc4c(n3)NC(=O)C(C)(C)O4)n2)cc(OC)c1OC.O=S(=O)(O)c1ccccc1 [Compound 1 (besylate salt)] ?
Response: > 100 µM

###

system: UACC-257; conditions: read-out: LC50; UACC-257 (Melanoma)
assay endpoint: CC50

Prompt: So what does the record say about CC50 for COc1cc(Nc2ncc(F)c(Nc3ccc4c(n3)NC(=O)C(C)(C)O4)n2)cc(OC)c1OC.O=S(=O)(O)c1ccccc1 [Compound 1 (besylate salt)] ?
Response: > 100 µM

###

test system: NCI-H522; conditions: read-out: LC50; NCI-H522 (Non-Small Cell Lung Cancer)
assay endpoint: CC50

Prompt: Any idea what CC50 came out for COc1cc(Nc2ncc(F)c(Nc3ccc4c(n3)NC(=O)C(C)(C)O4)n2)cc(OC)c1OC.O=S(=O)(O)c1ccccc1 [Compound 1 (besylate salt)] on NCI-H522?
Response: > 100 µM

###

test system: NCI-H460; details: read-out: LC50; NCI-H460 (Non-Small Cell Lung Cancer)
assay endpoint: CC50

Prompt: So what does the record say about CC50 for COc1cc(Nc2ncc(F)c(Nc3ccc4c(n3)NC(=O)C(C)(C)O4)n2)cc(OC)c1OC.O=S(=O)(O)c1ccccc1 [Compound 1 (besylate salt)] ?
Response: > 100 µM

###

test system: NCI-H226; details: read-out: LC50; NCI-H226 (Non-Small Cell Lung Cancer)
assay endpoint: CC50

Prompt: So what does the record say about CC50 for COc1cc(Nc2ncc(F)c(Nc3ccc4c(n3)NC(=O)C(C)(C)O4)n2)cc(OC)c1OC.O=S(=O)(O)c1ccccc1 [Compound 1 (besylate salt)] ?
Response: > 100 µM

###

system: LOX I MVI; conditions: read-out: LC50; LOX I MVI (Melanoma)
assay endpoint: CC50

Prompt: So what does the record say about CC50 for COc1cc(Nc2ncc(F)c(Nc3ccc4c(n3)NC(=O)C(C)(C)O4)n2)cc(OC)c1OC.O=S(=O)(O)c1ccccc1 [Compound 1 (besylate salt)] ?
Response: > 100 µM

###

tested on: SF-539; conditions: read-out: LC50; SF-539 (CNS Cancer)
assay endpoint: CC50

Prompt: So what does the record say about CC50 for COc1cc(Nc2ncc(F)c(Nc3ccc4c(n3)NC(=O)C(C)(C)O4)n2)cc(OC)c1OC.O=S(=O)(O)c1ccccc1 [Compound 1 (besylate salt)] ?
Response: > 100 µM

###

tested on: SNB-19; settings: read-out: LC50; SNB-19 (CNS Cancer)
assay endpoint: CC50

Prompt: Any idea what CC50 came out for COc1cc(Nc2ncc(F)c(Nc3ccc4c(n3)NC(=O)C(C)(C)O4)n2)cc(OC)c1OC.O=S(=O)(O)c1ccccc1 [Compound 1 (besylate salt)] on SNB-19?
Response: > 100 µM

###

tested on: SK-MEL-2; conditions: read-out: LC50; SK-MEL-2 (Melanoma)
assay endpoint: CC50

Prompt: So what does the record say about CC50 for COc1cc(Nc2ncc(F)c(Nc3ccc4c(n3)NC(=O)C(C)(C)O4)n2)cc(OC)c1OC.O=S(=O)(O)c1ccccc1 [Compound 1 (besylate salt)] ?
Response: > 100 µM

###

target: Ret (h) (Homo sapiens, UniProt P07949); assay: RET kinase activity, [γ-33P-ATP] filter assay; assay type: biochemical; settings: compound concentration 1 micromoles
Sequence (P07949 29-1114): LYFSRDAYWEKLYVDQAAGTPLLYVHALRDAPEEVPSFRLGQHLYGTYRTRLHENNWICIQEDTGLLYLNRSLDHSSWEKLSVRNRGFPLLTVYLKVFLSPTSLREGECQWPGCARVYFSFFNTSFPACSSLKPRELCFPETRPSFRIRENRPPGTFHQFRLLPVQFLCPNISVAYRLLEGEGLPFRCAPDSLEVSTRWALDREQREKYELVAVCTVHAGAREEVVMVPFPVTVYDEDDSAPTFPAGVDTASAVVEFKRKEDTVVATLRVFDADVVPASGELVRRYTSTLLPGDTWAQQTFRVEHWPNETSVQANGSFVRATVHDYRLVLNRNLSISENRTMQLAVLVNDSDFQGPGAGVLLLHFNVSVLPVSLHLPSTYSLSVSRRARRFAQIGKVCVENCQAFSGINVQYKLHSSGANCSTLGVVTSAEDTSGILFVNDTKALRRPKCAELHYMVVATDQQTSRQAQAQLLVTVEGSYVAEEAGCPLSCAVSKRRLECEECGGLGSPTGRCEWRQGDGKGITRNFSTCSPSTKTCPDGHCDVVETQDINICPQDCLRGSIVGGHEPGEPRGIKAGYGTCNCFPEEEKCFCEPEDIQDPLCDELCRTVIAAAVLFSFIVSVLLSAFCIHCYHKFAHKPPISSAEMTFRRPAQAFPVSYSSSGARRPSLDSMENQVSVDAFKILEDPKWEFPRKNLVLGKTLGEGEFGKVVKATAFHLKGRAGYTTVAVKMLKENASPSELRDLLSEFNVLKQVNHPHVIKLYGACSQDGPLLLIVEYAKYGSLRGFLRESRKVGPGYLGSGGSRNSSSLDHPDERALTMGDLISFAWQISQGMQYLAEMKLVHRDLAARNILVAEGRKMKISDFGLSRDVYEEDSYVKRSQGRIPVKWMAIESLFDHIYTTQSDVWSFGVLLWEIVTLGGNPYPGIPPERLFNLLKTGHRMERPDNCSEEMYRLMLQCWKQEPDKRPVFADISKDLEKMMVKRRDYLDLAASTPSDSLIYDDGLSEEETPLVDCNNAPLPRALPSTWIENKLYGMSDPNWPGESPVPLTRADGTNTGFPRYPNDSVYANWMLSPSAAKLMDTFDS
assay endpoint: RET kinase autophosphorylation activity as a percentage of control RET kinase activity (%)
# number only, unit % dropped from output

Reference set, count: 4
Prompt: So what does the record say about RET kinase autophosphorylation activity as a percentage of control RET kinase activity for Cc1cc(Nc2ncc(F)c(NC3CCCC3C(N)=O)n2)ccc1N1CCN(C)CC1 (centres unmarked) [Compound 7] ?
Response: 2

Prompt: How about this compound: Cc1cc(Nc2cc(N3CCN(C)CC3)nc(Sc3ccc(NC(=O)C4CC4)cc3)n2)[nH]n1 [Compound 6]
Response: 4

Prompt: How about this compound: COc1cc(Nc2ncc(F)c(Nc3ccc4c(n3)N(COP(=O)(O)O)C(=O)C(C)(C)O4)n2)cc(OC)c1OC [Compound 9]
Response: 11

Prompt: How about this compound: Cc1ccc(Nc2ncc(F)c(Nc3ccc(OCC#N)cc3)n2)cc1S(N)(=O)=O [Compound 10]
Response: 1

---
Prompt: So what does the record say about RET kinase autophosphorylation activity as a percentage of control RET kinase activity for Cc1noc(COc2ccc(Nc3nc(Nc4cccc(O)c4)ncc3F)cc2)n1 [Compound 5] ?
Response: 0

###

tested on: IGROV1; conditions: read-out: LC50; IGROV1 (Ovarian Cancer)
assay endpoint: CC50

Prompt: So what does the record say about CC50 for COc1cc(Nc2ncc(F)c(Nc3ccc4c(n3)NC(=O)C(C)(C)O4)n2)cc(OC)c1OC.O=S(=O)(O)c1ccccc1 [Compound 1 (besylate salt)] ?
Response: > 100 µM

###

tested on: MOLT-4; settings: read-out: LC50; MOLT-4 (Leukemia)
assay endpoint: CC50

Prompt: So what does the record say about CC50 for COc1cc(Nc2ncc(F)c(Nc3ccc4c(n3)NC(=O)C(C)(C)O4)n2)cc(OC)c1OC.O=S(=O)(O)c1ccccc1 [Compound 1 (besylate salt)] ?
Response: > 100 µM

###

tested on: SR; conditions: read-out: LC50; SR (Leukemia)
assay endpoint: CC50

Prompt: So what does the record say about CC50 for COc1cc(Nc2ncc(F)c(Nc3ccc4c(n3)NC(=O)C(C)(C)O4)n2)cc(OC)c1OC.O=S(=O)(O)c1ccccc1 [Compound 1 (besylate salt)] ?
Response: > 100 µM

###

system: TK-10; conditions: read-out: LC50; TK-10 (Renal Cancer)
assay endpoint: CC50

Prompt: Any idea what CC50 came out for COc1cc(Nc2ncc(F)c(Nc3ccc4c(n3)NC(=O)C(C)(C)O4)n2)cc(OC)c1OC.O=S(=O)(O)c1ccccc1 [Compound 1 (besylate salt)] on TK-10?
Response: > 100 µM

###

tested on: A549/ATCC; conditions: read-out: LC50; A549/ATCC (Non-Small Cell Lung Cancer)
assay endpoint: CC50

Prompt: So what does the record say about CC50 for COc1cc(Nc2ncc(F)c(Nc3ccc4c(n3)NC(=O)C(C)(C)O4)n2)cc(OC)c1OC.O=S(=O)(O)c1ccccc1 [Compound 1 (besylate salt)] ?
Response: > 100 µM

###

tested on: CAKI-1; conditions: read-out: LC50; CAKI-1 (Renal Cancer)
assay endpoint: CC50

Prompt: So what does the record say about CC50 for COc1cc(Nc2ncc(F)c(Nc3ccc4c(n3)NC(=O)C(C)(C)O4)n2)cc(OC)c1OC.O=S(=O)(O)c1ccccc1 [Compound 1 (besylate salt)] ?
Response: > 100 µM

###

tested on: UO-31; settings: read-out: LC50; UO-31 (Renal Cancer)
assay endpoint: CC50

Prompt: So what does the record say about CC50 for COc1cc(Nc2ncc(F)c(Nc3ccc4c(n3)NC(=O)C(C)(C)O4)n2)cc(OC)c1OC.O=S(=O)(O)c1ccccc1 [Compound 1 (besylate salt)] ?
Response: > 100 µM

###

tested on: HOP-92; conditions: read-out: LC50; HOP-92 (Non-Small Cell Lung Cancer)
assay endpoint: CC50

Prompt: Any idea what CC50 came out for COc1cc(Nc2ncc(F)c(Nc3ccc4c(n3)NC(=O)C(C)(C)O4)n2)cc(OC)c1OC.O=S(=O)(O)c1ccccc1 [Compound 1 (besylate salt)] on HOP-92?
Response: > 100 µM

###

target: Ret (Homo sapiens)
assay endpoint: IC50 (nM)
# number only, unit nM dropped from output

Prompt: So what does the record say about IC50 for Cc1nc2ccc(Nc3ncc(F)c(Nc4ccc5c(c4)NC(=O)C(C)(C)S5)n3)cc2[nH]1 ?
Response: 16.5

Then this compound:
Prompt: So what does the record say about IC50 for COc1cc(Nc2ncc(F)c(Nc3ccc4c(n3)NC(=O)C(C)(C)O4)n2)cc(O)c1OC ?
Response: 7.3

###

test system: SK-MEL-5; details: read-out: LC50; SK-MEL-5 (Melanoma)
assay endpoint: CC50

Prompt: Any idea what CC50 came out for COc1cc(Nc2ncc(F)c(Nc3ccc4c(n3)NC(=O)C(C)(C)O4)n2)cc(OC)c1OC.O=S(=O)(O)c1ccccc1 [Compound 1 (besylate salt)] on SK-MEL-5?
Response: > 100 µM
